src = patent US20210363269A1

# study target: T1, human SIRPγ isoform 1 (human, UniProt Q9P1W8 29-147)
# T1 construct: also called Gamma; Human SIRPg
# T1 sequence (Q9P1W8 29-147 limits assumed): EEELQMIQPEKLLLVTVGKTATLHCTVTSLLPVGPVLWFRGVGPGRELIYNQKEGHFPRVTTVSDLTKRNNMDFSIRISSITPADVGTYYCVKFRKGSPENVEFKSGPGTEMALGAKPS
# measurement protocol: SPR
observable: koff
Include the unit after the number when you answer.

// recorded koff for Hum1/AB27_HC_wt (antibody, V domains shown) VH: DVQLVESGGGVVRPGESLRLSCAVSGFRFSSYAMSWVRQAPGKGLEWVSGISSGGDTYYVDSVKGRFTISRDNSKNTLYLQVNSLTAEDTAIYYCARETWNHLFDYWGLGTLVTVSS VL: SYELTQPPSVSVSPGQTARITCSGGSYSSYYYAWYQQKPGQAPVTLIYSDDKRPSNIPERFSGSSSGTTVTLTISGVQAEDEADYYCGGYDQSSYTNPFGGGTKLTVL : 0.000178 s⁻¹
